Data credit: the supplement of paper PMC10126150

- System: ATP;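 note: ATP exposure 15 min at 22 °C before imaging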
- Method notes: switch fluorescence ratio, 500 uM ATP over buffer (Cy3 cluster intensity, sum of 5 cycles each) (fold (ratio)); higher = stronger signal-on switching upon ATP binding; sequences stand for … in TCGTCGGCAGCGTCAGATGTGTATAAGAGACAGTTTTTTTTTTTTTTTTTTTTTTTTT…TC
- Condition set: aptamer strand: ATP DNA aptamer (quencher-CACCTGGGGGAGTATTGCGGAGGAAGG + anchor), 100 nM annealed; ATP concentration: 500 uM
Endpoint label: switch fluorescence ratio
Numbers only.

Recorded results for 6 sequences are shown here.
• AGGCAATTGT = 1.03
• CGTTCATTGT = 0.994
• TAGTTCGGGG = 1.01
• GGTTAGATGG = 0.978
• TATTCATCCA = 1.01
• TGACCGGGGG = 1.06

Kindly give each listed record's switch fluorescence ratio.
1. TCTCTAGCTG
2. TACATGGGTT
3. TCCTTGTTTT
4. TTGACGAATC
5. TTGCTGGTCA
6. TCAAAATTTT

-- reply
1. 1.05
2. 1.01
3. 1
4. 1.07
5. 0.99
6. 1.01

Kindly give each listed record's switch fluorescence ratio.
1. TAAGGGGGTG
2. GGGATCATTA

-- reply
1: 1.01; 2: 0.983
